Numbers sourced from the supplement of paper PMC9170038.

Test system: K4 kissing-loop RNA reporter
Assay: apparent KD of K4 kissing-loop reporter; higher = weaker reporter binding
Settings: Eterna round: R107; input ligand: FMN 200 uM
Outcome label depends on apparent KD of K4 kissing-loop reporter relative to 400 nM: at/above gives criterion met, below gives criterion not met.

Record excerpt, results attached:
Sequence Code	Assigned Class
AGUGCUAUGACGGCCGCCACUGAUUACCAGUGAUGUUGGUAGUCCAUUUACGACUUCCUGAUAACCAGGACCGGGUCAUAGGUCG [Tryp B Ex t2]	criterion met
UGACUGGACUGAAGGAGCGUUCAGGUAGGUCGCAUAGGAGUGAUGUUCCAAUGAAGGAGCGAGCAGGUAGGUCGCAGUCUAGUCU [ArgBS 13 #DoubleAptamer #SwitchBubble]	criterion not met
UAGGGCAUCGCAGGAUAUCCUGCUUAACGUUGGAUUCCAGUGAUGUUGGAAAGUCGGCCUAGGGUAGGAGAAGGGCGAACUUGAA [Maxean]	criterion not met
ACCAAUUUACCGGCAGUAGUGAUGUUACUCCGAGGACCGGUACGGCCGCCACUCGCGAACGUAGGGUUUCUGACUCGAAGAGUCU	criterion not met
AGACUAUCGUCAAAGACGGUAGUCAAAAGUGAGGAUAUAGUGAUGUUUAGAAGGCACUAAGACUGUAUCGAAUAGAUACGGUCAA [FmnA 1 #K4BetweenAptamer #OpenEnded]	criterion met
UGACAUUGCUCAGAUACCAGACUUGAGGAUCACCCAAGUGCCAAAACGUACUAAAUAAAAGUCCCUUGGCAGCUGAGCAAUGUCU [TheoBX 13]	criterion not met
AAGGCACGGCUUCGGCCGUGCCAAAUAGAUACCAGCAUAAUAAUAUGCCCUUGGCAGCUAAAUAGAAAUUCAGUGAUGUUGGAUA [SS Theo A Tesla 2.1]	criterion met
GGAGGAGAAUAUGAUACCAGCAGAGAGAGAGAGGAAGUAUAGUGAUGUUAUAUGAGAGAAUGCCCUUGGCAGCAUAAGACGCAGG [#07 K4 Theophylline B Same State]	criterion not met

// query # bool: apparent KD of K4 kissing-loop reporter of UUUGAAAUGUCUGAUACCAGAGAAAAUAUAUGUAGUGAUGUUAUAUACAAAUUUAAUAAGCUCCCUUGGCAGCAGUAUGAAUUUU [AstrosExc-TheB#14] >= 400 nM
// result criterion met

// query # bool: apparent KD of K4 kissing-loop reporter of UCCUAGGUUCGUCGGCGAAAGCCCUGCGAAGGAGCGUGCGAAAGUACAGGUAGGUCGCGCAGUGAUGUUGCACCUAGGUAAUAAA [#07 K4 Arginine A Exclusion] >= 400 nM
// result criterion met

// query # bool: apparent KD of K4 kissing-loop reporter of AAGUAGAUCAAGAUCUAGUAUCUAGAUCAACGAGGACCGGUACGGCCGCCACUCGAAUAAUAGAGUGAUGUUCUAAGAUCUACAA [AK1.4 SS Tryptophan A] >= 400 nM
// result criterion met

// query # bool: apparent KD of K4 kissing-loop reporter of GGUAGCAUGGCGGCCGCCACUAUUACUGGAUCGGAAACGAUCCAGUAUUUAUGAGUGAUGUUCAUUAGGACCGGGCCAUGCUACC >= 400 nM
// result criterion not met

---

Tested on: K4 kissing-loop RNA reporter
Test: apparent KD of K4 kissing-loop reporter; higher = weaker reporter binding
Conditions: Eterna round: R107; input ligand: theophylline 20 uM
Measurement Kind: apparent KD of K4 kissing-loop reporter
// return the numeric value with its unit appended

Sequence Code	Test Target	apparent KD of K4 kissing-loop reporter
UUUAACGAGUGAUGUUCGAAAAGUAAUAGUUAGGAUAUCGUUUUUUCGAGAAGGAACUUCGAAGUGAUACGAAAGUAUCGCUUCG [FMN A 1]	K4 kissing-loop RNA reporter	351 nM

The sequence listed as UCCUACGAGGUAACGUGGAUAUCUCGUUGCAAGGAUAUCUGGAAACAGAGAAGGUGCAACAUUAUCGGCAGUGAUGUUGCUGACC shows apparent KD of K4 kissing-loop reporter equal to 385 nM

The sequence listed as GUUACGCAUGGAAGGAGCGCAGGCUCAACAAAUAGCUCAGUGAUGUUGAGCAUAUUAAUUCUGCAGGUAGGUCGCCAUGUGUAAC [Ex Arginine B K4 25] shows apparent KD of K4 kissing-loop reporter equal to 536 nM

The sequence listed as ACAGUUGCUAGUGAUACCAGACUAGCACUACGUAGUAUGUCAAGUGAUGUUUGACAACUAGUCCCUUGGCAGCGCGAUACGACUG [#12 K4 Theophylline B Same State] shows apparent KD of K4 kissing-loop reporter equal to 136 nM

---

Tested on: MS2 coat protein
Experiment: apparent KD of MS2 coat protein; higher = weaker reporter binding
Details: Eterna round: R107; input ligand: none
Measured apparent KD of MS2 coat protein, listed per entry for reference.
Output spec: scalar in nM, unitless text.

Sequence Code	apparent KD of MS2 coat protein (nM)
CGGCCCUCACGUGAGGAUCACCCACGUGAUACCAGCCUGGAAACAGGCCCUUGGCAGCACUAGGUCAUCAAAGAUGACCAAGCCG [TheoAX 27 #OpenEnded #AlternativeMS2]	10.7
GGACUAACCAGAAGGAGCGACACGCAGAAACUGCAAUUUCCUCCACACGAGGAUCACCCGUGUCAGGUAGGUCGCUGGUUAGUCG	25.4
UACUUACAUGAGGAUCACCCAUGUGGCGAAGGAGCGGCAUGAGGGCCAGGUAGGUCGCGCCAACAUACAUACAUGAGGAUCUCCC [Same State Arginine A 4]	78.9
AUAACUGCCAAGGAUCAUGGGUGAGCAGAUACCAGCUAGGAAACUAGCCCUUGGCAGCUGCAACAUGAGGAUCACCCAUGUAAUA [(T)'-(M)'-(T1)-(T2)-(M1)-(M2)_Design8]	147

The sequence listed as UGUAUGUGAACUGAUACCAGACCUCAAUCUUGAGGAUCACCCAAGGAGGACGAAAGUCCGGUCCCUUGGCAGCAGUUCACAUACU [ThBS - Unstable 2] shows apparent KD of MS2 coat protein equal to 664

---

System: K4 kissing-loop RNA reporter;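 also: bound reporter read as fluorescence of individual clusters on recovered sequencing chips by microscopy, with normalized cluster intensities fitted with a binding model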
Experiment: apparent KD of K4 kissing-loop reporter; higher = weaker reporter binding
Settings: Eterna round: R107; input ligand: arginine 13.2 mM
Measurement Kind: apparent KD of K4 kissing-loop reporter (nM)
Output spec: scalar in nM, unitless text.

Past entries and their recorded results:
Sequence Code	Quantitative Result
AGUGUUAGGUUAGAUACCAGCCGUCUGUAGAUAAUCCUCAGACCGCCAGUGAUGUUGGCAGGCCCUUGGCAGCUAACAGAACAGA [Orbediqu]	206
UCCUGCAAUCGACCACGAAAGUGGAUCGAUACCAGAGUCGAAAGACUCCCUUGGCAGCGAGUGAUGUUCGAGCAGGUAAAAUAAA [#SwitchBubble 23 #K4Late]	461
AGAGUUAUAUGAGGAUAUGGGAUAGUAAAUGAGUGAGUUAUAGUGUAGUUUGUUUAGUGAUGUUAUUUAGAAGGCGUGAGUGAUG [dgnnmullin]	114
CCGUGGAGUGAUGUUCCACGUUCUACGGAUACCAGUUGUGCCAGCGGCCCUUGGCAGCCGCACCUUGCAGUGAUGUUGUGAGGCU [Same State Theophylline A Gf 6]	210
AGACUUCACCGAAGGAGCGACGUGGCCUAGUGAUGUUAGGCACGAGAGAAAUCUCGUAUACGUCAGGUAGGUCGCGGUGAAGUCA [Omei KL Arginine B SS C v6]	142
UCCUGCAAUCCACCACGAAAGUGGAUGGAUACCAGAGUCGAAAGACUCCCUUGGCAGCCAGUGAUGUUGGAGCAGGUAAAAUAAA	532
AUAGUGAGCUCGGCCGCCACUCCACUAUGUCAACAGUAGCUCUGUCAUAACCAGUGAUGUUGGUUGAGGACCGGGAGUUAAGACU [theeternabot_exclusion_KL_Trp_B_34]	164
UUUAUAUUGUCGGCCGCCACUGGAUCAAUAUUUGUAUGAUCUAGUUCAAAGUGAUGUUUUGAGUCCAGGACCGGGACAUUUGUUA [JR_ExcTryptoB_Sub005]	558
UUAAUAUUGUCGGCCGCCACUGGAUAGUAAUUUGUAUAAUCUAUUUCAAAGUGAUGUUUUGAGUCCAGGACCGGGACAUUUGAUA [JR_Nu_ExcTryptoB_Sub030]	363
AGACUACCACACUGUCAAUAGACAGUGAGCUAGGAUAUGCUGAUAAGCAGAAGGAGUGAUGUUCCUGGGUAGUCAAUAAAAUAAU [FmnAX 13 G29+G67]	349

The sequence listed as UCCUAGGCUCGAAAGAGCCUAGGUUAGACUCAGGAUAUCUGGAAACAGAGAAGGGAGCUACUAGUGAUGUUAGGAAUUCCCAUUU shows apparent KD of K4 kissing-loop reporter equal to 85.7

---

Test system: MS2 coat protein
Test: apparent KD of MS2 coat protein; designed switch direction (-1 OFF switch, 1 ON switch): -1; higher = weaker reporter binding
Settings: input ligand: none
Measurement Kind: apparent KD of MS2 coat protein

Past entries and their recorded results:
Sequence Code	apparent KD of MS2 coat protein
GUAGAUCGAGUUAGGAUAUGAUUAAAAUCCGGAUAUCAGAAGGAACUUGAGGAUCACCCAAGUAUAGAUGAUUU [JR_BMEx4_Sub055] (Eterna round: R97, puzzle: Brourd's mod of Exclusion 4)	23.2 nM
UGAGACUGAGGAUAUACUAGACUACAAAGUAGUCAGUGGGUACAUGAGGAUCACCCAUGUAGAAGGCAGCCUCG [Omei Repeat Sequence v1] (Eterna round: R97, puzzle: Exclusion 2)	35.9 nM

The sequence listed as CUGUGUAGACAGGAUAUGCUGUACAAAAGUACAGCAGAAGGGUCUACAUGAGGAUCACCCAUGUUUACUUCAUG [)mei Ex6 B23] (Eterna round: R97, puzzle: Exclusion 6) shows apparent KD of MS2 coat protein equal to 98.4 nM

The sequence listed as GCUCGUGGGCAAGGAUAUCCUACGCUGUUCUGGUUCGUGUCUGUCACAUGAGGAUCACCCAUGUGGGAGAAGGUGCAUUUGGGU [Design 56] (Eterna round: R96, puzzle: Exclusion NG 2) shows apparent KD of MS2 coat protein equal to 20.6 nM

The sequence listed as AUAAAUCAUGUAGGAUAUGCGUGGCAAAGCUAUGCAGAAGGACAUGAGGAUCACCCAUGUCUUUCCGUCUGAGUACAGACGGGA [Mat - Exclusion NG 1 - Mod of JL - D47] (Eterna round: R96, puzzle: Exclusion NG 1) shows apparent KD of MS2 coat protein equal to 24.9 nM

The sequence listed as UAUGUGUCAGGAUAUUAAUUAUAACAGAAUUUAACAAUGAUUAAGAAGGGACAUGAGGAUCACCCAUGUUCAUC [JR_Ex4_Sub024] (Eterna round: R97, puzzle: Exclusion 4) shows apparent KD of MS2 coat protein equal to 20.4 nM

The sequence listed as GUUUUCAGACGGAGAUCCUACAUGAGGAUCACCCAUGUCUCUCUUGUUCCUUGCUCGUCUUUUCCUCCUCUGUUCUC [Elimod 33 - Jieux - Sensor, turn-off variant 1] (Eterna round: R97, puzzle: Sensor, turn-off variant 1) shows apparent KD of MS2 coat protein equal to 847 nM

The sequence listed as CUCGUGCAGCUUUGCUGUACGAGUACAUGAGGAUCACCCAUGUAGGAUAUGGUACGCUUUGCGUGCCAGAAGGACGUGCGUUAG [JL EXNG3 1.41] (Eterna round: R96, puzzle: Exclusion NG 3) shows apparent KD of MS2 coat protein equal to 28.9 nM

The sequence listed as AAAACAAAGCUAGGAUAUUGUCCGAUGUAGCGAUAAGAAGGAGCAGAGUACGUCUGGUCCACAUGAGGAUCACCCAUGUACAAA [Inmaon] (Eterna round: R96, puzzle: Exclusion NG 1) shows apparent KD of MS2 coat protein equal to 67.5 nM
